procedure.summary: Caco-2 permeability of ADC payload
Type: in vitro ADME
experimental.parameters: human, Caco-2, A-B; corresponding payload (Table 26); read-out: Permeability Caco-2 A-B (10e−6 cm/s)
Mark satisfied for Papp A→B at 2 h, 10 NM under 0.7 ×10⁻⁶ cm/s, not satisfied if at or over.

A selection of reference data follows.
{"columns": ["molecule", "label.value"],
 "data": [
  ["CC[C@H](O)[C@@H](C)[C@H]1O[C@@H]1C[C@H](C)/C=C/C=C(\\C)[C@H]1OC(=O)C[C@H](O)CC[C@@](C)(OC)[C@@H](OC(=O)N2CCN(C)CC2)/C=C/[C@@H]1C", "not satisfied"],
  ["CC[C@H](O)[C@@H](C)[C@H]1O[C@@H]1C[C@@](C)(O)/C=C/C=C(\\C)[C@H]1OC(=O)C[C@H](O)CC[C@@](C)(OC)[C@@H](OC(=O)N2CCN(C)CC2)/C=C/[C@@H]1C [D2]", "satisfied"],
  ["CC[C@H](O)[C@@H](C)[C@H]1O[C@@H]1C[C@@](C)(O)/C=C/C=C(\\C)[C@H]1OC(=O)C[C@H](O)CC[C@@](C)(OC)[C@@H](OC(=O)N2CCN(CCCC(=O)O)CC2)/C=C/[C@@H]1C", "satisfied"],
  ["CC[C@H](O)[C@@H](C)C1OC1C[C@@](C)(O)/C=C/C=C(\\C)[C@H]1OC(=O)C[C@H](O)CC[C@@](C)(OC(C)=O)[C@@H](OC(=O)N2CCNCC2)/C=C/[C@@H]1C (stereo in doubt)", "satisfied"],
  ["CC(=O)N1CCC(n2nnc3c(F)cc(/C=C(\\C)[C@H]4OC(=O)C[C@H](O)CC[C@H](C)[C@@H](OC(=O)N5CCN(C)CC5)/C=C/[C@@H]4C)cc32)CC1", "not satisfied"]
]}

Asked: Please indicate whether the reported Papp A→B at 2 h, 10 NM of C/C(=C\c1cccc(S(=O)(=O)N2CCCC2)c1)[C@H]1OC(=O)C[C@H](O)CC[C@H](C)[C@@H](OC(=O)N2CCN(C)CC2)/C=C/[C@@H]1C is strictly below 0.7 ×10⁻⁶ cm/s.
Given back: not satisfied

Asked: Please indicate whether the reported Papp A→B at 2 h, 10 NM of C/C(=C\c1cc(F)cc(N2CCOCC2)c1)[C@H]1OC(=O)C[C@H](O)CC[C@H](C)[C@@H](OC(=O)N2CCN(C)CC2)/C=C/[C@@H]1C is strictly below 0.7 ×10⁻⁶ cm/s.
Given back: not satisfied
